protocol.text: clinical
condition.notes: human, in vivo, 400 mg, tmax
observation.type: Tmax (h)

[[record]]
compound = "O=c1nc(NO)ccn1C1OC(CO)C(O)C1O (stereo not shown)"
measurement_unit = "h"
test_value = 1.5


====

protocol.text: clinical
condition.notes: human, in vivo, 800 mg, tmax
observation.type: Tmax

[[record]]
compound = "O=c1nc(NO)ccn1C1OC(CO)C(O)C1O (stereo not shown)"
test_value = "1.5 h"


====

protocol.text: clinical
condition.notes: human, in vivo, po, 400 mg, Cmax
observation.type: Cmax

[[record]]
molecule = "O=c1nc(NO)ccn1C1OC(CO)C(O)C1O (stereo not shown) [EIDD-1931]"
observation_type = "Cmax"
test_value = "1850 ng/mL"


====

protocol.text: clinical
condition.notes: human, in vivo, po, 1200 mg, Cmax
observation.type: Cmax (ng/mL)

[[record]]
compound = "O=c1nc(NO)ccn1C1OC(CO)C(O)C1O (stereo not shown) [EIDD-1931]"
observation_type = "Cmax"
measurement_unit = "ng/mL"
test_value = 4500


====

protocol.text: clinical
condition.notes: human, in vivo, po, 600 mg, tmax (median)
observation.type: Tmax (h)

[[record]]
compound = "O=c1nc(NO)ccn1C1OC(CO)C(O)C1O (stereo not shown)"
test_value = 1


====

protocol.text: clinical
condition.notes: human, in vivo, 300 mg, AUCt
observation.type: AUC(0-t)

[[record]]
molecule = "O=c1nc(NO)ccn1C1OC(CO)C(O)C1O (stereo not shown)"
test_value = "2960 ng·h/mL"


====

protocol.text: clinical
condition.notes: human, in vivo, 100 mg, tmax
observation.type: Tmax (h)

[[record]]
molecule = "O=c1nc(NO)ccn1C1OC(CO)C(O)C1O (stereo not shown)"
observation_type = "Tmax"
test_value = 1.25


====

protocol.text: in vitro
condition.notes: male, Sprague-Dawley, rat, plasma
observation.type: half-life at 1 μM (min)

[[record]]
smiles = "CC(C)C(=O)OC[C@H]1O[C@@H](n2ccc(NO)nc2=O)[C@H](O)[C@@H]1O"
measurement_unit = "min"
test_value = 1


====

protocol.text: clinical
condition.notes: human, in vivo, 600 mg, tmax
observation.type: Tmax (h)

[[record]]
compound = "O=c1nc(NO)ccn1C1OC(CO)C(O)C1O (stereo not shown) [EIDD-1931]"
test_value = 1.75


====

protocol.text: clinical
condition.notes: human, in vivo, po, 200 mg, t1/2
observation.type: half-life (h)

[[record]]
compound = "O=c1nc(NO)ccn1C1OC(CO)C(O)C1O (stereo not shown)"
observation_type = "half-life"
test_value = 1.02


====

protocol.text: clinical
condition.notes: human, in vivo, 400 mg, t1/2
observation.type: half-life

[[record]]
compound = "O=c1nc(NO)ccn1C1OC(CO)C(O)C1O (stereo not shown) [EIDD-1931]"
observation_type = "half-life"
test_value = "1.2 h"


====

protocol.text: clinical
condition.notes: human, in vivo, 50 mg, Cmax
observation.type: Cmax (ng/mL)

[[record]]
compound = "O=c1nc(NO)ccn1C1OC(CO)C(O)C1O (stereo not shown)"
test_value = 223


====

protocol.text: clinical
condition.notes: human, in vivo, po, 1200 mg, t1/2
observation.type: half-life (h)

[[record]]
compound = "O=c1nc(NO)ccn1C1OC(CO)C(O)C1O (stereo not shown) [EIDD-1931]"
observation_type = "half-life"
test_value = 1.81

